target: UniProt O35235; test: Inhibition of recombinant mouse RANKL-induced osteoclastogenesis of mouse RAW264.7 cells assessed as reduction of TRAP-positive multinucleated cells at 5 uM after 4 days by light microscopic analysis relative to control; format: cell-based
Sequence (O35235 139-316 limits assumed): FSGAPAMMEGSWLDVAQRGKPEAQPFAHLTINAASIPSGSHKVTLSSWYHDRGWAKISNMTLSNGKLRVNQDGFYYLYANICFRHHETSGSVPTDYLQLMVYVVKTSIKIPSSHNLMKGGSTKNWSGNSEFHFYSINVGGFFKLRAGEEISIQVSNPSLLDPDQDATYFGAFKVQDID
Class (required): determined from inhibition; valid ranges are interval 1 = under 20%, interval 2 = from 20% up to 40%, interval 3 = 40% and over

smiles_string: O=c1oc2ccc(-c3ccc(F)cc3F)cc2c(=O)n1-c1ccc(F)cc1F
assigned_class: interval 3
--
smiles_string: N#Cc1cccc(-n2c(=O)oc3ccc(-c4ccc(F)cc4F)cc3c2=O)c1
assigned_class: interval 2
--
smiles_string: C#Cc1cccc(-n2c(=O)oc3ccc(-c4ccc(F)cc4F)cc3c2=O)c1
assigned_class: interval 3
--
smiles_string: O=c1oc2ccc(-c3ccc(F)cc3F)cc2c(=O)n1-c1cccc(C(F)(F)F)c1
assigned_class: interval 3
--
smiles_string: O=c1oc2ccc(-c3ccc(F)cc3F)cc2c(=O)n1-c1ccccc1C(F)(F)F
assigned_class: interval 2
--
smiles_string: O=c1oc2ccc(-c3ccc(F)cc3F)cc2c(=O)n1-c1ccc(Cl)cc1F
assigned_class: interval 1
--
smiles_string: O=c1oc2ccc(-c3ccc(F)cc3F)cc2c(=O)n1-c1cc(F)ccc1F
assigned_class: interval 3
--
smiles_string: O=c1oc2ccc(-c3ccc(F)cc3F)cc2c(=O)n1-c1ccc(F)c(F)c1
assigned_class: interval 1
--
smiles_string: O=c1oc2ccc(-c3ccc(F)cc3F)cc2c(=O)n1-c1ccc(C(F)(F)F)cc1
assigned_class: interval 1
--
smiles_string: N#Cc1ccc(-n2c(=O)oc3ccc(-c4ccc(F)cc4F)cc3c2=O)cc1
assigned_class: interval 2
--
smiles_string: COc1ccc(-n2c(=O)oc3ccc(-c4ccc(F)cc4F)cc3c2=O)cc1OC
assigned_class: interval 2
--
smiles_string: COc1cccc(-n2c(=O)oc3ccc(-c4ccc(F)cc4F)cc3c2=O)c1
assigned_class: interval 2
